Reported VNA IC50 values for a set of binders
- experimentalSystem: hemagglutinin (HA) of influenza B/Brisbane/60/08 (Victoria) (influenza B virus)
- assayOverview: cell-based or functional assay
recordedMetric: VNA IC50

INSERT INTO assay_data (binder, recordedmetric, result) VALUES
  ('SD3002 (VHH) VHH: EVQLVESGGGLVQPGGSLRLSCAASGFTFSTSWMYWLRQAPGKGLEWVSVINTDGGTYYADSVKGRFTISRDNSKNTLYLQMNSLRAEDTAVYYCAKDWGGPEPTRGQGTQVTVSS', 'VNA IC50', '5 nM'),
  ('SD3102 (VHH) VHH: EVQLVESGGGLVQPGGSLRLSCAISGLSLDTYAVGWFRQAPGKEREGVSCISSGHGQTYYADSVKGRFTISTDNSKNTLYLQMNSLRAEDTAVYYCATESRYYCSDNWPAPQRYIYWGQGTLVTVSS', 'VNA IC50', '> 1000 nM'),
  ('SD3073 (VHH) VHH: EVQLVESGGGLVQPGGSLRLSCAISGLSLDTYAVGWFRQAPGKEREGVSCISSGHGMTYYADSVKGRFTVSTDNSKNTLYLQMNSLRAEDTAVYYCATESRYYCSDNWPAPQRYIYWGQGTLVTVSS', 'VNA IC50', '28 nM'),
  ('SD3087 (VHH) VHH: EVQLLESGGGLVQPGGSLRLSCAASGFTLENKAIGWFRQAPGKEREGVLCISKSGSWTYYADSVKGRFTISRDNSKNTVYLQMNSLRPEDTAVYYCATTTAGGGLCWDGTTFSRLASSWGQGTLVTVSS', 'VNA IC50', '32 nM'),
  ('SD3070 (VHH) VHH: EVQLVESGGGLVQPGGSLRLSCAISGLSLDTYAVGWFRQAPGKEREGITCISSGHGITYYADSVKGRFTVSTDNSKNTLYLQMNSLRAEDTAVYYCATESRYYCSDNWPAPQRYIYWGQGTLVTVSS', 'VNA IC50', '> 1000 nM');
